The origin of these recorded values is patent US10501479B2.

This listing pairs compounds with measured PK F.
Measurement Description: Animal PK study in mouse via i.v., p.o. and s.c. administration
Type: in vivo
Quantity Measured: PK F (%)

compound="CC(NC(=O)Nc1ccc(S(=O)(=O)Cc2ccc3c(c2)CNC3)cc1)c1ccc(F)cc1 (stereo not shown) [H1262]" endpoint_result=1.13
compound="CC(NC(=O)Nc1ccc(S(=O)(=O)Cc2ccc3c(c2)CN(CC2CC2)C3)cc1)c1ccccc1 (stereo not shown) [H1220]" endpoint_result=4.71
compound="C[C@H](NC(=O)Nc1ccc(S(=O)(=O)Cc2ccc(CC(C)(C)N(C)C)cc2)cc1)c1cccc(Cl)c1Cl [H1010]" endpoint_result=3.09
compound="C[C@H](NC(=O)Nc1ccc(S(=O)(=O)Cc2ccc(CO)cc2)cc1)c1cccc(Cl)c1Cl [H1060]" endpoint_result=18.8
compound="CC(NC(=O)Nc1ccc(S(=O)(=O)Nc2ccc3c(c2)CCN(C)C3)cc1)c1cccc(Cl)c1Cl (stereo not shown) [H1333]" endpoint_result=2.08
compound="C[C@H](NC(=O)Nc1ccc(S(=O)(=O)Nc2ccc(CC(C)(C)N(C)C)cc2)cc1)c1cccc(Cl)c1Cl [H0967]" endpoint_result=0.2
compound="COc1ccc([C@H](C)NC(=O)Nc2ccc(S(=O)(=O)Cc3ccc4c(c3)CCN(C(C)=O)C4)cc2)c(Cl)c1Cl [H1025]" endpoint_result=5.92
compound="C[C@H](NC(=O)Nc1ccc2c(c1)CC(c1ccc3c(c1)CNC3)S2(=O)=O)c1ccccc1 (stereo partly shown) [H1264]" endpoint_result=0.36
compound="COc1cc(S(=O)(=O)Cc2ccc3c(c2)CN(C)C3)ccc1NC(=O)NC(C)c1ccccc1 (stereo not shown) [H1388]" endpoint_result=11.3
compound="COc1ccc([C@H](C)NC(=O)Nc2ccc(S(=O)(=O)Nc3ccc4c(c3)CCNC4)cc2)c(Cl)c1Cl.Cl [H1005]" endpoint_result=1.3
compound="COc1ccc([C@@H](C)NC(=O)Nc2ccc(S(=O)(=O)Cc3ccc4c(c3)CCN(C)C4)cc2)c(Cl)c1Cl [H1417]" endpoint_result=11.80
compound="C[C@H](NC(=O)Nc1ccc(S(=O)(=O)Nc2ccc(CC(C)(C)N)cc2)cc1)c1ccc(-c2cnccn2)c(Cl)c1Cl [H0906]" endpoint_result=0.1
compound="CC(NC(=O)Nc1ccc(S(=O)(=O)Cc2ccc3c(c2)CN(C)C3)cc1O)c1ccccc1 (stereo not shown) [H1448]" endpoint_result=1.90
compound="C[C@H](NC(=O)Nc1ccc(S(=O)(=O)Nc2ccc3c(c2)CCNC3)cc1)c1cccc(Cl)c1Cl.Cl [H1004]" endpoint_result=13
compound="C[C@H](NC(=O)Nc1ccc(S(=O)(=O)Cc2ccc(CC(C)(C)N)cc2)cc1)c1cccc(Cl)c1Cl [H0969]" endpoint_result=1.3
compound="Cl.O=C(NCc1cccc(Cl)c1Cl)Nc1ccc(S(=O)(=O)Cc2ccc3c(c2)CNC3)cc1 [H1057]" endpoint_result=1.6
compound="COc1cc(S(=O)(=O)Cc2ccc3c(c2)CCNC3)ccc1NC(=O)NC(C)c1cccc(Cl)c1Cl.Cl (stereo not shown) [H1415]" endpoint_result=1.12
compound="O=C(NCc1ccccc1Cl)Nc1ccc(S(=O)(=O)Cc2ccc3c(c2)CCNC3)cc1 [H1039]" endpoint_result=0.6
compound="CC(NC(=O)Nc1ccc(S(=O)(=O)Cc2ccc3c(c2)CNC3)cc1)c1cccc2ccccc12.Cl (stereo not shown) [H1149]" endpoint_result=0.86
compound="CC(C)(N)Cc1ccc(NS(=O)(=O)c2ccc(NC(=O)NCc3ccccc3)cc2)cc1.Cl [H0993]" endpoint_result=0.4
compound="CC(c1ccccc1)N(C)C(=O)Nc1ccc(S(=O)(=O)Cc2ccc3c(c2)CN(C)C3)cc1 (stereo not shown) [H1381]" endpoint_result=20.64
compound="CCOC(=O)N1CCc2cc(NS(=O)(=O)c3ccc(NC(=O)N[C@@H](C)c4cccc(Cl)c4Cl)cc3)ccc2C1 [H1054]" endpoint_result=3.0
compound="C[C@H](NC(=O)Nc1ccc(S(=O)(=O)Cc2ccc3c(c2)CCN(C)C3)cc1)c1cccc(Cl)c1Cl [H1071]" endpoint_result=19.9
